system: RPMI-8226 leukemia; assay: NCI tumour cell line growth inhibition, 48 h
recordedMetric: TGI

Examples from the recorded data:
Enquiry: Report its TGI with RPMI-8226 leukemia as the test system: Cn1c(-c2ccccc2)cc(-c2ccc3c(c2)OCO3)c1-c1cccs1
Return: > 100 µM

Enquiry: Report its TGI with RPMI-8226 leukemia as the test system: CCN(CC)CC(O)c1ccc2ccc3ccccc3c2c1 (stereo not given)
Return: 38.2 µM

---
Enquiry: Report its TGI with RPMI-8226 leukemia as the test system: O=c1[nH]c(=S)[nH]c2c1sc(=S)n2-c1ccccc1
Return: > 100 µM

Enquiry: Report its TGI with RPMI-8226 leukemia as the test system: CCCCCCN(CCCCCC)CCCNc1nccc2ccccc12
Return: 4.11 µM

###

The compounds listed here are annotated with their TGI.
system: UO-31 renal; test: NCI tumour cell line growth inhibition, 48 h
Report only the number, with the unit µM understood.

Examples from the recorded data:
Enquiry: Return value of TGI for input Cc1cccc(CN(C)c2ccc(CO)c(Cl)c2)c1 , no commentary.
Return: 64.3

Enquiry: Return value of TGI for input Cc1c2ccccc2c(C)c2c3c(ccc12)C(=O)C=CC3=O , no commentary.
Return: 41.7

Enquiry: Return value of TGI for input COc1cc(Cn2c3c(c4c(CN(C)C)c(O)ccc42)C(=O)c2ccccc2C3=O)cc(OC)c1 , no commentary.
Return: 27.7

Consider the additional compound presented here.
Enquiry: Return value of TGI for input CN(C)CC(C(=O)c1ccccc1)c1ccccc1 (stereo not given) , no commentary.
Return: 3.02

###

test system: NCI-H23 lung; assay: NCI tumour cell line growth inhibition, 48 h
The molecules listed here are annotated with their TGI.

Enquiry: Return value of TGI for input CN(C)c1nc(N(C)C)nc(N(C)CN(C)c2ccccc2)n1 , no commentary.
Return: > 100 µM

Enquiry: Return value of TGI for input O=C(CC(=O)c1ccncc1)c1ccccc1 , no commentary.
Return: > 100 µM

---
Enquiry: Return value of TGI for input COc1ccc(CN2c3ccccc3Sc3ccccc32)cc1F , no commentary.
Return: > 100 µM

Enquiry: Return value of TGI for input CC(C)=CC/C=C(/C)[C@H]1CC[C@]2(C)[C@@H]1CC[C@@H]1[C@@]3(C)CCC(=O)NC(C)(C)[C@@H]3CC[C@]12C , no commentary.
Return: 45.7 µM

Enquiry: Return value of TGI for input N#CC12COC3(CCCCC3C1(C#N)C#N)OC2=N (centres undefined) , no commentary.
Return: 37.2 µM

###

system: SN12C renal
Please state which outcome applies, choosing from active, inactive

Solved entries (count: 3):
Enquiry: // param item: CSC1=Nc2c(c(C)c(-c3ccccc3)n2COC(CO)CO)C2=NC(=O)C(C)N12 (stereo not given) ; yields the recorded call
Return: inactive

Enquiry: // param item: C=CCN1C(=O)/C(=c2\sc3n(c2=O)C2C(NN=3)N(CC)C(=O)N2CC)c2ccccc21 (stereo not given) ; yields the recorded call
Return: inactive

Enquiry: // param item: CCN(CC)CCN1C(=O)c2cccc3c(-c4ccc5c(c4)ncn5C4CCCCC4)ccc(c23)C1=O ; yields the recorded call
Return: inactive

---
Enquiry: // param item: c1cncc(CNc2ccccc2-c2nnc(Nc3ccc4c(c3)OCO4)o2)c1 ; yields the recorded call
Return: active

Enquiry: // param item: COc1cccc(Nc2nc(NNC(=O)Cc3ccccc3)nc(NNC(=O)c3ccncc3)n2)c1 ; yields the recorded call
Return: inactive

Each recorded value in this set is attributed to PubChem BioAssay (NCI).
